target: CYP2D6 (Homo sapiens)
Construct: from tissue; host or cells: human liver microsomes, mixed-gender pool of 200
Sequence (P10635 whole entry): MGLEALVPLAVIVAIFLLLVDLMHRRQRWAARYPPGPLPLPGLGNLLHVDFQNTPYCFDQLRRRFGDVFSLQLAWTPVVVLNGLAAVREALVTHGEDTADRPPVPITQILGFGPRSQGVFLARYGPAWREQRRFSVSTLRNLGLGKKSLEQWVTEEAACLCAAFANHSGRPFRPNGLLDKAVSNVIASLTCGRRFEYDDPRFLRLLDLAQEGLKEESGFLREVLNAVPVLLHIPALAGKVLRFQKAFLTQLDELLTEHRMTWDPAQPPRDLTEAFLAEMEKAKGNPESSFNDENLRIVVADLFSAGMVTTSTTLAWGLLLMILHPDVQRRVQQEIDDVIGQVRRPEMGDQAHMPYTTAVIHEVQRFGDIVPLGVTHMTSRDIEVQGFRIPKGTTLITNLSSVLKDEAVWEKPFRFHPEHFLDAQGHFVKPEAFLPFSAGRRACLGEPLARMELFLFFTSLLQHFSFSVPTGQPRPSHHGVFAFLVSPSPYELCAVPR
assay text: In-vitro CYP inhibition study, CYP2D6
Format: in vitro ADME
run parameters: human liver microsomes, substrate Dextramethorphan (10 μM), preincubation 0 min
pIC50: −log10 of the molar value.

compound	pIC50
CC(C)Nc1cc(-c2c[nH]c(C(=O)N[C@H](CO)c3cccc(Cl)c3)c2)c(Cl)cn1 [Ulixertinib, reference compound]	< 4.70
[2H]C([2H])([2H])C([2H])(Nc1cc(-c2c[nH]c(C(=O)N[C@H](CO)c3cccc(Cl)c3)c2)c(Cl)cn1)C([2H])([2H])[2H] [Formula 18]	< 4.70
Cl.[2H]C(C)(C)Nc1cc(-c2c[nH]c(C(=O)N[C@H](CO)c3cccc(Cl)c3)c2)c(Cl)cn1 [Formula 21A]	< 4.70

----------
assay text: Steady-state exposure of ulixertinib and metabolites in human subjects
Assay type: in vivo
run parameters: in vivo, day 15, non-isotopically enriched ulixertinib and related metabolites, read-out: Steady-State AUC (Mean ± SD)

compound	AUC at 15 day / µg·h/mL
C[C@@H](CO)Nc1cc(-c2c[nH]c(C(=O)N[C@H](CO)c3cccc(Cl)c3)c2)c(Cl)cn1 [Formula 35]	3.4
C[C@H](CO)Nc1cc(-c2c[nH]c(C(=O)N[C@H](CO)c3cccc(Cl)c3)c2)c(Cl)cn1 [Formula 34]	39.4
CC(C)Nc1cc(-c2c[nH]c(C(=O)N[C@H](CO)c3cccc(Cl)c3)c2)c(Cl)cn1 [Ulixertinib, reference compound]	29.6
C[C@H](Nc1cc(-c2c[nH]c(C(=O)N[C@H](CO)c3cccc(Cl)c3)c2)c(Cl)cn1)C(=O)O [Formula 37]	6.5

----------
Tested on: CYP3A4/5
assay text: In-vitro CYP inhibition study, CYP3A4/5
Type: in vitro ADME
run parameters: both sexes, human, human liver microsomes, pH 7.4, probe Midazolam (3 μM), substrate Midazolam (3 μM), preincubation 30 min
Listing of recorded IC50 at 5 min by entry.

compound	IC50 at 5 min [µM]
Cl.[2H]C(C)(C)Nc1cc(-c2c[nH]c(C(=O)N[C@H](CO)c3cccc(Cl)c3)c2)c(Cl)cn1 [Formula 21A]	17
CC(C)Nc1cc(-c2c[nH]c(C(=O)N[C@H](CO)c3cccc(Cl)c3)c2)c(Cl)cn1 [Ulixertinib, reference compound]	14
[2H]C([2H])([2H])C([2H])(Nc1cc(-c2c[nH]c(C(=O)N[C@H](CO)c3cccc(Cl)c3)c2)c(Cl)cn1)C([2H])([2H])[2H] [Formula 18]	14
[2H]C([2H])([2H])C(Nc1cc(-c2c[nH]c(C(=O)N[C@H](CO)c3cccc(Cl)c3)c2)c(Cl)cn1)C([2H])([2H])[2H] [Formula 19]	13

----------
assay text: Half-life determination in human liver microsomes
Assay type: in vitro ADME
run parameters: human, 1 μM, NADPH, Rep 4, read-out: Half-life, t½, Rep 4

compound	quantity unit	half-life at 1 μM
[2H]C(C)(C)Nc1cc(-c2c[nH]c(C(=O)N[C@H](CO)c3cccc(Cl)c3)c2)c(Cl)cn1 [Formula 21]	min	61.5
[2H]C([2H])([2H])C(Nc1cc(-c2c[nH]c(C(=O)N[C@H](CO)c3cccc(Cl)c3)c2)c(Cl)cn1)C([2H])([2H])[2H] [Formula 19]	min	44.9
[2H]C([2H])([2H])C([2H])(Nc1cc(-c2c[nH]c(C(=O)N[C@H](CO)c3cccc(Cl)c3)c2)c(Cl)cn1)C([2H])([2H])[2H] [Formula 18]	min	55.8
CC(C)Nc1cc(-c2c[nH]c(C(=O)N[C@H](CO)c3cccc(Cl)c3)c2)c(Cl)cn1 [Ulixertinib, reference compound]	min	46.2

----------
Quick reference: AUC(0-t) of the listed items.
assay text: Pharmacokinetics and metabolite formation in rats
Format: in vivo, rat
run parameters: both sexes, rat, in vivo, po, 12.5 mg/kg

compound	quantity unit	AUC(0-t)
Cl.[2H]C([2H])([2H])C([2H])(Nc1cc(-c2c[nH]c(C(=O)N[C@H](CO)c3cccc(Cl)c3)c2)c(Cl)cn1)C([2H])([2H])[2H] [Formula 18A]	µg·h/mL	228
Cl.[2H]C([2H])([2H])C(Nc1cc(-c2c[nH]c(C(=O)N[C@H](CO)c3cccc(Cl)c3)c2)c(Cl)cn1)C([2H])([2H])[2H] [Formula 19A]	µg·h/mL	199
Cl.[2H]C(C)(C)Nc1cc(-c2c[nH]c(C(=O)N[C@H](CO)c3cccc(Cl)c3)c2)c(Cl)cn1 [Formula 21A]	µg·h/mL	193

----------
assay text: Half-life determination in human liver microsomes
Assay type: in vitro ADME
run parameters: human, 1 μM, NADPH, six replicates, read-out: Half-life, t½, Mean ± SD
readout kind: half-life at 1 μM (min)

molecule	readout kind	experimental value
CC(C)Nc1cc(-c2c[nH]c(C(=O)N[C@H](CO)c3cccc(Cl)c3)c2)c(Cl)cn1 [Ulixertinib, reference compound]	half-life at 1 μM	48.9
[2H]C(C)(C)Nc1cc(-c2c[nH]c(C(=O)N[C@H](CO)c3cccc(Cl)c3)c2)c(Cl)cn1 [Formula 21]	half-life at 1 μM	63.8
[2H]C([2H])([2H])C(Nc1cc(-c2c[nH]c(C(=O)N[C@H](CO)c3cccc(Cl)c3)c2)c(Cl)cn1)C([2H])([2H])[2H] [Formula 19]	half-life at 1 μM	45.4
[2H]C([2H])([2H])C([2H])(Nc1cc(-c2c[nH]c(C(=O)N[C@H](CO)c3cccc(Cl)c3)c2)c(Cl)cn1)C([2H])([2H])[2H] [Formula 18]	half-life at 1 μM	59

----------
assay text: Steady-state exposure of ulixertinib and metabolites in human subjects
Type: in vivo
run parameters: day 15, steady state
Text: The steady state exposure levels of non-isotopically enriched parent ulixertinib and related metabolites in rat (day 5) and human subjects (day 15) is provided in TABLE 1 below: […]
readout kind: % of total Ulixertinib related exposure

compound	experimental value
C[C@@H](CO)Nc1cc(-c2c[nH]c(C(=O)N[C@H](CO)c3cccc(Cl)c3)c2)c(Cl)cn1	4.3%
C[C@H](Nc1cc(-c2c[nH]c(C(=O)N[C@H](CO)c3cccc(Cl)c3)c2)c(Cl)cn1)C(=O)O	8.2%
CC(C)Nc1cc(-c2c[nH]c(C(=O)N[C@H](CO)c3cccc(Cl)c3)c2)c(Cl)cn1 [Ulixertinib, reference compound]	37.5%
C[C@H](CO)Nc1cc(-c2c[nH]c(C(=O)N[C@H](CO)c3cccc(Cl)c3)c2)c(Cl)cn1	49.9%

----------
IC50 listing for selected compounds.
target: CYP2C8 (Homo sapiens, UniProt P10632)
Construct: from tissue; host or cells: human liver microsomes, mixed-gender pool of 200
Sequence (P10632 whole entry): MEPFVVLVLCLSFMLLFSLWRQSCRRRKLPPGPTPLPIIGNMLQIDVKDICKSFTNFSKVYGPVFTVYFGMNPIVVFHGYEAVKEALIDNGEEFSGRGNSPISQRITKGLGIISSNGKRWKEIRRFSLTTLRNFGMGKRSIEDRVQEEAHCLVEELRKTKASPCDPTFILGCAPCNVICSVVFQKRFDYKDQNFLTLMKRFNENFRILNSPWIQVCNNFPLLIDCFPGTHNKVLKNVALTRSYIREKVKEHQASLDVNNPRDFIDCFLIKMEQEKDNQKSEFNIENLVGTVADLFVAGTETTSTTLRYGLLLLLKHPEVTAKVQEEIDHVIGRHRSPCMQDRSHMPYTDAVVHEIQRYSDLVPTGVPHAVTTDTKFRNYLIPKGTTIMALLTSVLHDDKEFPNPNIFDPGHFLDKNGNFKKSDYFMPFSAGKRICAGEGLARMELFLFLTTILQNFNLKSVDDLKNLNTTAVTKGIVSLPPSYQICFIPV
assay text: In-vitro CYP inhibition study, CYP2C8
Format: in vitro ADME
run parameters: human liver microsomes, substrate Paclitaxel (5 μM), preincubation 30 min

compound	IC50
[2H]C([2H])([2H])C(Nc1cc(-c2c[nH]c(C(=O)N[C@H](CO)c3cccc(Cl)c3)c2)c(Cl)cn1)C([2H])([2H])[2H] [Formula 19]	12 µM
CC(C)Nc1cc(-c2c[nH]c(C(=O)N[C@H](CO)c3cccc(Cl)c3)c2)c(Cl)cn1 [Ulixertinib, reference compound]	9.2 µM
Cl.[2H]C(C)(C)Nc1cc(-c2c[nH]c(C(=O)N[C@H](CO)c3cccc(Cl)c3)c2)c(Cl)cn1 [Formula 21A]	19 µM
[2H]C([2H])([2H])C([2H])(Nc1cc(-c2c[nH]c(C(=O)N[C@H](CO)c3cccc(Cl)c3)c2)c(Cl)cn1)C([2H])([2H])[2H] [Formula 18]	11 µM

----------
IC50 values, listed per item
target: CYP2C19 (Homo sapiens)
Construct: from tissue; host or cells: human liver microsomes, mixed-gender pool of 200
Sequence (P33261 whole entry): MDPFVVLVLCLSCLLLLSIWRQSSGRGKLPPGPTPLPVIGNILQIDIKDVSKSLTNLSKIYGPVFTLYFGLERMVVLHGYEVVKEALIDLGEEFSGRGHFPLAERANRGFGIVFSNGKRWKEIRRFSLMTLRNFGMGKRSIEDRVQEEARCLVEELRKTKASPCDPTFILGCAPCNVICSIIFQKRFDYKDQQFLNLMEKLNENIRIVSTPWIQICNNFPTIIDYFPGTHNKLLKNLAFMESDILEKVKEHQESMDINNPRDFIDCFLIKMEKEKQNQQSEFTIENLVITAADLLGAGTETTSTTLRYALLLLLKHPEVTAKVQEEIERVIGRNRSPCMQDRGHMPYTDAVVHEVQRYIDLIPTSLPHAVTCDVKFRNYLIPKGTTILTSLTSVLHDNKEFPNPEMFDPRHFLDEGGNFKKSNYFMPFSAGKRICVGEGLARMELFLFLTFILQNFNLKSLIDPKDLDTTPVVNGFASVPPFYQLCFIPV
assay text: In-vitro CYP inhibition study, CYP2C19
Type: in vitro ADME
run parameters: human liver microsomes, substrate S-Mephenytoin (60 μM), preincubation 30 min
readout kind: IC50

compound	readout kind	experimental value
CC(C)Nc1cc(-c2c[nH]c(C(=O)N[C@H](CO)c3cccc(Cl)c3)c2)c(Cl)cn1 [Ulixertinib, reference compound]	IC50	9.2 µM
[2H]C([2H])([2H])C([2H])(Nc1cc(-c2c[nH]c(C(=O)N[C@H](CO)c3cccc(Cl)c3)c2)c(Cl)cn1)C([2H])([2H])[2H]	IC50	11 µM
[2H]C([2H])([2H])C(Nc1cc(-c2c[nH]c(C(=O)N[C@H](CO)c3cccc(Cl)c3)c2)c(Cl)cn1)C([2H])([2H])[2H]	IC50	12 µM
Cl.[2H]C(C)(C)Nc1cc(-c2c[nH]c(C(=O)N[C@H](CO)c3cccc(Cl)c3)c2)c(Cl)cn1 [Formula 21A]	IC50	19 µM

----------
target: CYP2C8 (Homo sapiens)
Construct: from tissue; host or cells: human liver microsomes, mixed-gender pool of 200
assay text: In-vitro CYP inhibition study, CYP2C8
Assay type: in vitro ADME
run parameters: human liver microsomes, substrate Paclitaxel (5 μM), preincubation 0 min

molecule	target	IC50, µM
Cl.[2H]C(C)(C)Nc1cc(-c2c[nH]c(C(=O)N[C@H](CO)c3cccc(Cl)c3)c2)c(Cl)cn1 [Formula 21A]	CYP2C8 (Homo sapiens)	19
[2H]C([2H])([2H])C(Nc1cc(-c2c[nH]c(C(=O)N[C@H](CO)c3cccc(Cl)c3)c2)c(Cl)cn1)C([2H])([2H])[2H]	CYP2C8 (Homo sapiens)	10
[2H]C([2H])([2H])C([2H])(Nc1cc(-c2c[nH]c(C(=O)N[C@H](CO)c3cccc(Cl)c3)c2)c(Cl)cn1)C([2H])([2H])[2H]	CYP2C8 (Homo sapiens)	9.6
CC(C)Nc1cc(-c2c[nH]c(C(=O)N[C@H](CO)c3cccc(Cl)c3)c2)c(Cl)cn1 [Ulixertinib, reference compound]	CYP2C8 (Homo sapiens)	8.5
